- tested.system: gB AD-2S1 peptide (human cytomegalovirus)
- assay.method.text: SPR
- condition.set: both partners purified
Here the recorded kon is given for each entry.
Numbers only; they are read as M⁻¹ s⁻¹.

Looking for the measured kon of MAB343 (antibody, V domains shown) VH: QVQLQESGGGVVQPGRSLRLSCAASGFTFNTYNMHWVRQAPGKGLEWVAVISNDGTYKYSADSVKGRFSISRGNSKNTLYLQMNSLRPDDTAVYYCARDGRSVGGFSGILDPWGQGTLATVSS VL: EIVMTQSPATLSLSPGDRATLSCRASQSVGSYLAWYQQKPGQAPRLLIYDASDRATGIPARFSGSGSGTDFTLTISSLEPEDFAVYYCQQRSNWPPLTFGGGTKVEIK , can you help?
1.61e+08

Field entry: MAB319 (antibody, V domains shown) VH: QVQLVESGGGVVQPGRSLRLSCSASGFTFSDYNLHWVRQAPGKGLEWVAVISIDGSDKHHADSVKGRFTVSRDNSKNTVSLQMDSLRPEDTAVYYCARDGRSVGGYSGILDPWGQGTLVTVSS VL: EIVLTQSPATLSLSPGERATLSCRASQSVGSYLAWYQQKPGQAPRLLIYDASERATGIPARFSGSGSGTDFTLTISSLEPEDVAVYYCQQRNNWPPLTFGGGTKVEIK
1.3e+08

Also MAB313 (antibody, V domains shown) VH: QVQLVQSGGGVIQPGRSLTLSCAASGFTFSAYSLHWVRQAPGKGLQWVAVISFDGNFKHFADSLRGRFTISRDNSKNRFYLQMNGLRGEDTAVYYCARDGRAVDGFSGILDFWGQGTLVSVSS VL: EIVMTQSPATLSLSPGERATLSCRASQSVGRYLTWFQQKPGQAPRLLIYDASERATGIPARFSGSGSGTDFTLTISSLEPEDFAVYYCQQRANWPPLTFGGGTKVEIK , if possible.
1.54e+08
